system: A549; test: cells; conditions: Homo sapiens, A549, 48 h
Description: Antitumor activity against human A549 cells assessed as inhibition of cell viability incubated for 48 hrs by MTT assay
pIC50: −log10 of the molar value.
property_label: pIC50

{"molecule": "COc1cc(OC)c2c(=O)[nH]c(-c3cc(C)c(OCC(=O)NNc4ncc5cc(C(=O)N(C)C)n(C6CCCC6)c5n4)c(C)c3)nc2c1", "experimental_target": "A549", "pIC50": 4.67}

[A] COc1cc(OC)c2c(=O)[nH]c(-c3ccc(OCC(=O)N4CCN(c5ccc(Nc6ncc7cc(C(=O)N(C)C)n(C8CCCC8)c7n6)nc5)CC4)c(C)c3)nc2c1
[B] COc1cc(OC)c2c(=O)[nH]c(-c3ccc(OCC(=O)N4CCN(c5ccc(Nc6ncc7cc(C(=O)N(C)C)n(C8CCCC8)c7n6)nc5)CC4)c(Br)c3)nc2c1
**Q:** Two entries are listed, A and B . Which one carries the higher pIC50? # respond with the chosen item's label
**A:** A

* * *

system: A549; assay: cells; details: Homo sapiens, A549, 48 h
property_label: IC50 (µM)

# example entries with known answers
{"molecule": "COc1cc(OC)c2c(=O)[nH]c(-c3ccc(OCC(=O)N4CCN(c5ccc(Nc6ncc7cc(C(=O)N(C)C)n(C8CCCC8)c7n6)nc5)CC4)cc3)nc2c1", "IC50 / µM": 14.2}
{"molecule": "CN(C)C(=O)c1cc2cnc(Nc3ccc(N4CCN(C(=O)COc5ccc(-c6nc7ccc(Cl)cc7c(=O)[nH]6)cc5)CC4)cn3)nc2n1C1CCCC1", "IC50 / µM": 31.2}

[1] CN(C)C(=O)c1cc2cnc(Nc3ccc(N4CCN(C(=O)COc5c(Br)cc(-c6nc7ccc(F)cc7c(=O)[nH]6)cc5Br)CC4)cn3)nc2n1C1CCCC1
[2] CN(C)C(=O)c1cc2cnc(Nc3ccc(N4CCN(C(=O)COc5ccc(-c6nc7ccc(F)cc7c(=O)[nH]6)cc5)CC4)cn3)nc2n1C1CCCC1
**Q:** Out of 1 and 2 , name the one with the higher IC50. Selection: enter the item's label.
**A:** 1

* * *

assay: C0 in male Sprague-Dawley rat at 5 mg/kg, iv measured up to 24 hrs by LC-MS/MS analysis; format: ADME, organism-based; conditions: in vivo
property_label: C0 at 24 h (ng/mL)
# unit: ng/mL | format: bare number

**Q:** Name the recorded C0 at 24 h of the compound listed here: COc1cc(-c2nc3ccc(F)cc3c(=O)[nH]2)cc(OC)c1OCC(=O)N1CCN(c2ccc(Nc3ncc4cc(C(=O)N(C)C)n(C5CCCC5)c4n3)nc2)CC1
**A:** 6000

* * *

tested on: NCI-H460; assay: cells; details: Homo sapiens, NCI-H460, 48 h
Description: Antitumor activity against human NCI-H460 cells assessed as inhibition of cell viability incubated for 48 hrs by MTT assay
property_label: IC50 (µM)

{"molecule": "COc1cc2nc(-c3ccc(OCC(=O)N4CCN(c5ccc(Nc6ncc7cc(C(=O)N(C)C)n(C8CCCC8)c7n6)nc5)CC4)cc3)[nH]c(=O)c2cc1OC", "property_label": "IC50", "reported": 38.4}
{"molecule": "Cc1ccc2c(=O)[nH]c(-c3ccc(OCC(=O)N4CCN(c5ccc(Nc6ncc7cc(C(=O)N(C)C)n(C8CCCC8)c7n6)nc5)CC4)cc3)nc2c1", "property_label": "IC50", "reported": 32.1}
{"molecule": "COc1cc(OC)c2c(=O)[nH]c(-c3ccc(OCC(=O)N4CCN(c5ccc(Nc6ncc7cc(C(=O)N(C)C)n(C8CCCC8)c7n6)nc5)CC4)c(F)c3)nc2c1", "property_label": "IC50", "reported": 26.5}
{"molecule": "COc1cc(-c2nc3ccc(F)cc3c(=O)[nH]2)cc(OC)c1OCC(=O)N1CCN(c2ccc(Nc3ncc4cc(C(=O)N(C)C)n(C5CCCC5)c4n3)nc2)CC1", "property_label": "IC50", "reported": 2.21}
{"molecule": "COc1cc(OC)c2c(=O)[nH]c(-c3ccc(OCC(=O)N4CCN(c5ccc(Nc6ncc7cc(C(=O)N(C)C)n(C8CCCC8)c7n6)nc5)CC4)c(Br)c3)nc2c1", "property_label": "IC50", "reported": 36.1}
{"molecule": "COc1ccc2nc(-c3ccc(OCC(=O)N4CCN(c5ccc(Nc6ncc7cc(C(=O)N(C)C)n(C8CCCC8)c7n6)nc5)CC4)cc3)[nH]c(=O)c2c1", "property_label": "IC50", "reported": 36.8}
{"molecule": "COc1cc(OC)c2c(=O)[nH]c(-c3cc(C)c(OCCCCC(=O)NNc4ncc5cc(C(=O)N(C)C)n(C6CCCC6)c5n4)c(C)c3)nc2c1", "property_label": "IC50", "reported": 32.6}
{"molecule": "Cc1cc(-c2nc3ccc(F)cc3c(=O)[nH]2)ccc1OCC(=O)N1CCN(c2ccc(Nc3ncc4cc(C(=O)N(C)C)n(C5CCCC5)c4n3)nc2)CC1", "property_label": "IC50", "reported": 34.3}

[I] COc1cc(OC)c2c(=O)[nH]c(-c3cc(C)c(OCC(=O)NNc4ncc5cc(C(=O)N(C)C)n(C6CCCC6)c5n4)c(C)c3)nc2c1
[II] COc1cc(OC)c2c(=O)[nH]c(-c3ccc(OCC(=O)N4CCN(c5ccc(Nc6ncc7cc(C(=O)N(C)C)n(C8CCCC8)c7n6)nc5)CC4)c(C)c3)nc2c1
**Q:** Please indicate which has the smaller reported IC50: I , or II . Answer with the label corresponding to your selection.
**A:** II
(II: 8.11 µM, I: 26.6 µM)

* * *

tested on: NCI-H1299; assay: cells; conditions: Homo sapiens, NCI-H1299, 48 h
Description: Antitumor activity against human NCI-H1299 cells assessed as inhibition of cell viability incubated for 48 hrs by MTT assay
property_label: IC50 (µM)

[1] COc1cc(OC)c2c(=O)[nH]c(-c3ccc(OCC(=O)N4CCN(c5ccc(Nc6ncc7cc(C(=O)N(C)C)n(C8CCCC8)c7n6)nc5)CC4)c(F)c3)nc2c1
[2] COc1ccc2nc(-c3ccc(OCC(=O)N4CCN(c5ccc(Nc6ncc7cc(C(=O)N(C)C)n(C8CCCC8)c7n6)nc5)CC4)cc3)[nH]c(=O)c2c1
**Q:** Compare 1 and 2 by numeric IC50 and name the larger one. Please indicate the selected item by its label.
**A:** 1

* * *

system: NCI-H1299; test: cells; details: Homo sapiens, NCI-H1299, 48 h
pIC50: −log10 of the molar value.
property_label: pIC50

Previously resolved entries follow.
{"molecule": "COc1cc(OC)c2c(=O)[nH]c(-c3cc(C)c(OCCCC(=O)NNc4ncc5cc(C(=O)N(C)C)n(C6CCCC6)c5n4)c(C)c3)nc2c1", "pIC50": 4.84}
{"molecule": "COc1cc(OC)c2c(=O)[nH]c(-c3cc(Br)c(OCC(=O)N4CCN(c5ccc(Nc6ncc7cc(C(=O)N(C)C)n(C8CCCC8)c7n6)nc5)CC4)c(Br)c3)nc2c1", "pIC50": 4.57}
{"molecule": "CN(C)C(=O)c1cc2cnc(Nc3ccc(N4CCN(C(=O)COc5ccc(-c6nc7cc(C(F)(F)F)ccc7c(=O)[nH]6)cc5)CC4)cn3)nc2n1C1CCCC1", "pIC50": 4.68}

[P] COc1cc(OC)c2c(=O)[nH]c(-c3ccc(OCC(=O)N4CCN(c5ccc(Nc6ncc7cc(C(=O)N(C)C)n(C8CCCC8)c7n6)nc5)CC4)c(Br)c3)nc2c1
[Q] COc1cc(OC)c2c(=O)[nH]c(-c3cc(C)c(OCCCCC(=O)NNc4ncc5cc(C(=O)N(C)C)n(C6CCCC6)c5n4)c(C)c3)nc2c1
**Q:** Rank P against Q by their pIC50 values and give the higher one. Field: selected label. Fill in the label of the entry you choose.
**A:** P
(P: 4.84, Q: 4.41)

* * *

tested on: NCI-H1299; assay: cells; conditions: Homo sapiens, NCI-H1299, 48 h
property_label: IC50 (µM)

Some solved cases for reference:
{"compound": "CN(C)C(=O)c1cc2cnc(Nc3ccc(N4CCN(C(=O)COc5ccc(-c6nc7ccc(Cl)cc7c(=O)[nH]6)cc5)CC4)cn3)nc2n1C1CCCC1", "IC50 (µM)": 38.7}
{"compound": "CN(C)C(=O)c1cc2cnc(Nc3ccc(N4CCN(C(=O)COc5ccc(-c6nc7cc(Cl)ccc7c(=O)[nH]6)cc5)CC4)cn3)nc2n1C1CCCC1", "IC50 (µM)": 5.93}
{"compound": "CN(C)C(=O)c1cc2cnc(Nc3ccc(N4CCNCC4)cn3)nc2n1C1CCCC1 [RIBOCICLIB]", "IC50 (µM)": 14.7}
{"compound": "COc1cc(OC)c2c(=O)[nH]c(-c3cc(C)c(OCCO)c(C)c3)nc2c1 [APABETALONE]", "IC50 (µM)": 18.4}
{"compound": "Cc1cccc2c(=O)[nH]c(-c3ccc(OCC(=O)N4CCN(c5ccc(Nc6ncc7cc(C(=O)N(C)C)n(C8CCCC8)c7n6)nc5)CC4)cc3)nc12", "IC50 (µM)": 17.2}

[A] CN(C)C(=O)c1cc2cnc(Nc3ccc(N4CCN(C(=O)COc5c(Br)cc(-c6nc7ccc(F)cc7c(=O)[nH]6)cc5Br)CC4)cn3)nc2n1C1CCCC1
[B] COc1cc(OC)c2c(=O)[nH]c(-c3ccc(OCC(=O)N4CCN(c5ccc(Nc6ncc7cc(C(=O)N(C)C)n(C8CCCC8)c7n6)nc5)CC4)cc3)nc2c1
[C] CN(C)C(=O)c1cc2cnc(Nc3ccc(N4CCN(C(=O)COc5ccc(-c6nc7ccccc7c(=O)[nH]6)cc5)CC4)cn3)nc2n1C1CCCC1
[D] COc1cc(OC)c2c(=O)[nH]c(-c3ccc(OCC(=O)N4CCN(c5ccc(Nc6ncc7cc(C(=O)N(C)C)n(C8CCCC8)c7n6)nc5)CC4)c(C)c3)nc2c1
**Q:** Descending sort on IC50 required. Note for the reader: the ranking is given by listing the labels in the order requested.
**A:** A, B, C, D
